Assay: T. brucei methionyl-tRNA synthetase enzyme inhibition – biochemical, radioactivity, round 1, late-stage follow-up (AID 743060)
Details: purified enzyme, radiolabel aminoacylation, scintillation, 2 h; at 10 µM; stronger effect = higher value
measurementType: inhibition (%)
Note: unit % is implicit; provide only the numeric part.

**Q:** Data request, read-out inhibition, for `Cc1cccc(C(=O)NCCc2nc3ccccc3n2CCOc2ccccc2)c1`
**A:** 0.31

**Q:** Given `CC(CC(=O)Nc1cccc(Br)c1)=NNC(=O)c1ccc(O)cc1O` , state its recorded inhibition.
**A:** 90.5

**Q:** State the recorded inhibition for this entry: `Cn1c(CCNC(=O)c2ccc(Cl)cc2)nc2ccccc21`
**A:** 3.39

**Q:** Which measured inhibition value corresponds to COc1ccc(CCN(C(=S)Nc2ccccc2)C2CC(=O)N(c3ccc(Cl)cc3)C2=O)cc1 (stereo not given) ?
**A:** 99.4

**Q:** Item `CC(=O)c1cn(CC(=O)Nc2cccc(C(F)(F)F)c2)c2ccccc12` has what recorded inhibition?
**A:** 39.3

**Q:** Reported inhibition for `CCN(CC)C(=O)C(=O)c1cn(CC(=O)N2CCCc3ccccc32)c2ccccc12` : what is it?
**A:** -17.2

**Q:** Given the compound `CCN(CC)C(=O)C(=O)c1cn(CC(=O)Nc2cccc(OC)c2)c2ccccc12` , what is its reported inhibition?
**A:** 86.4

**Q:** What inhibition value was documented for this compound, `O=C(NCCc1nc2ccccc2[nH]1)c1ccc(Cl)c([N+](=O)[O-])c1` ?
**A:** 99.6

**Q:** I would be grateful if you could share the reported inhibition for COc1ccc(NC(=O)C2CC(=O)n3c(nc4ccccc43)N2)cc1 (stereo not given) .
**A:** -13.4

**Q:** // query inhibition value for entry CN1CC(=O)N2C(c3cccc([N+](=O)[O-])c3)c3[nH]c4ccccc4c3C[C@H]2C1=O (stereo not given in full)
**A:** 96.7

**Q:** Could you share which inhibition value was measured for `CC(C)c1nc2ccc(C(=O)N(C)CCc3nc4ccc(F)cc4[nH]3)cc2o1` ?
**A:** -7.17

**Q:** Fill blank: measured inhibition of the compound `O=C(Cn1cnc2ccccc21)Nc1cccc([N+](=O)[O-])c1` is ____.
**A:** 91.9

**Q:** Tell me the measured inhibition of O=C1[C@@H]2Cc3c([nH]c4ccccc34)C(c3cccc([N+](=O)[O-])c3)N2C(=O)CN1CCCO (stereo not given in full) , please.
**A:** 97.5

**Q:** Could you tell me which inhibition is on file for `Cc1ccc2[nH]c3nc(SCC(=O)Nc4ccc(C(F)(F)F)cc4)nnc3c2c1` ?
**A:** 15.1

**Q:** Using the record for `O=C(NCCc1nc2ccccc2[nH]1)c1c(F)cccc1F` , report its inhibition.
**A:** 1.38

**Q:** Data request, read-out inhibition, for `O=C(NCc1nc2ccccc2[nH]1)C1=C[C@H](c2csc3ccccc23)C[C@H](OCCCCO)O1`
**A:** 97.8

**Q:** Returns the measured inhibition for the input compound. Input: `O=C(CSc1nnc2c(n1)[nH]c1ccc(Br)cc12)NCc1ccccc1`
**A:** 59.7

**Q:** Query: inhibition; subject: `C[C@H](O)[C@@H]1C(=O)N2CCc3c([nH]c4ccccc34)[C@@H]2C[C@@H]1N(C)Cc1ccc2c(c1)OCO2`
**A:** 80.4

**Q:** Which inhibition is reported for this compound? `O=C(NCc1nc2ccccc2[nH]1)C1=C[C@H](c2ccc3c(c2)OCO3)C[C@H](OCCCCO)O1`
**A:** 79.4

**Q:** I have this compound here, CC1Cc2ccccc2N1C(=O)Cn1cc(C(=O)C(=O)N2CCOCC2)c2ccccc21 (stereo not given) , and I need its recorded inhibition.
**A:** -14.7

Reference for the values: PubChem BioAssay AID743060
